Every entry's value here was drawn from paper PMC5540273.

Tested on: FGFR2;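 also: KINOMEscan kinase panel screen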
Conditions: concentration: 1 μM, replicates: in singlicate; n = 1
Outcome Measure: %Inh (%)
Answer with a number only, understood to be in %.

INSERT INTO results (molecule, number) VALUES
  ('O=c1cc(N2CCOCC2)nc2n(Cc3cccc4ccccc34)ccn12 [GSK2333389]', 0),
  ('Fc1ccc(-c2ncn(CCCN3CCOCC3)c2-c2ccccn2)cc1 [SB-211742]', 0),
  ('O=c1cc(N2CCOCC2)nc2n(Cc3cccc(Cl)c3Cl)c(C3CC3)nn12 [GSK2358994]', 1),
  ('Nc1nccc(-c2c(-c3ccc(F)cc3)ncn2C2CCN(CC(F)(F)F)CC2)n1 [SB-236560]', 0),
  ('Cc1nnc(-c2ccc(C)c(-c3ccc(C(=O)Nc4ccc(NS(C)(=O)=O)cc4)cc3)c2)o1 [GW702865]', 0),
  ('NS(=O)(=O)CCc1cccc(Nc2nccc(-c3c(-c4cccc(NC(=O)c5c(F)cccc5F)c4)nn4ccccc34)n2)c1 [GSK336735]', 46),
  ('Cn1cc(-c2ccc3c(c2)CCN3C(=O)Cc2ccccc2Cl)c2c(N)ncnc21 [GSK2608885]', 82);

Please find the next molecule below.
According to the records, this molecule CC(C)(CN)c1nc(-c2ccc(Cl)c(O)c2)c(-c2ccncc2)[nH]1.O=C(O)C(F)(F)F [SB-477794] displays %Inh of 0
